# assayed-system: Neprilysin (Oryctolagus cuniculus, UniProt P08049)
# Sequence (P08049 whole entry): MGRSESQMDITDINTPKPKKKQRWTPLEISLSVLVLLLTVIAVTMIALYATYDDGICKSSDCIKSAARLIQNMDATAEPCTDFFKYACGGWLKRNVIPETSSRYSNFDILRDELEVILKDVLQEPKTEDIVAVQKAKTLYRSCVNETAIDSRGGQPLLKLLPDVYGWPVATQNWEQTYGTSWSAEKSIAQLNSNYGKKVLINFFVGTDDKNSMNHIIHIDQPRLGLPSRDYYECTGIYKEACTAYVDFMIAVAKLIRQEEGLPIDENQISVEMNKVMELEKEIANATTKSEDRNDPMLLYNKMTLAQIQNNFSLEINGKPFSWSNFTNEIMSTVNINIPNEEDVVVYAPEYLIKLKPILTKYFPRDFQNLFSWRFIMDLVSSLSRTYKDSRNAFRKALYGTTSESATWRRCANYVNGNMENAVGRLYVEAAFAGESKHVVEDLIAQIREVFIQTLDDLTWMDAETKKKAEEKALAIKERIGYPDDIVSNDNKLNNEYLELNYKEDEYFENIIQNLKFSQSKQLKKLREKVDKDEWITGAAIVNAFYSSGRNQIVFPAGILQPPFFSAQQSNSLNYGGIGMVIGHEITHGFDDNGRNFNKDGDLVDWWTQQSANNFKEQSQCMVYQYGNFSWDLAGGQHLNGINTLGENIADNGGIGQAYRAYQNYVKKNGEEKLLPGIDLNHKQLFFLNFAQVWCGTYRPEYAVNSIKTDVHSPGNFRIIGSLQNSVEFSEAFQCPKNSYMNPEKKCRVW
# assay-protocol: Inhibitory activity against Enkephalinase from rabbit using method 2 is determined.
assay-metric: pIC50
Note on units: pIC50 is unitless, being -log10 of a concentration expressed in mol/L.

The recorded pIC50 for O=C(O)CCNC(=O)[C@H](Cc1ccccc1)C[C@@H](Cc1ccccc1)C(=O)O is 8.30

----------
# assayed-system: Neprilysin (Rattus norvegicus, UniProt P07861)
# Sequence (P07861 whole entry): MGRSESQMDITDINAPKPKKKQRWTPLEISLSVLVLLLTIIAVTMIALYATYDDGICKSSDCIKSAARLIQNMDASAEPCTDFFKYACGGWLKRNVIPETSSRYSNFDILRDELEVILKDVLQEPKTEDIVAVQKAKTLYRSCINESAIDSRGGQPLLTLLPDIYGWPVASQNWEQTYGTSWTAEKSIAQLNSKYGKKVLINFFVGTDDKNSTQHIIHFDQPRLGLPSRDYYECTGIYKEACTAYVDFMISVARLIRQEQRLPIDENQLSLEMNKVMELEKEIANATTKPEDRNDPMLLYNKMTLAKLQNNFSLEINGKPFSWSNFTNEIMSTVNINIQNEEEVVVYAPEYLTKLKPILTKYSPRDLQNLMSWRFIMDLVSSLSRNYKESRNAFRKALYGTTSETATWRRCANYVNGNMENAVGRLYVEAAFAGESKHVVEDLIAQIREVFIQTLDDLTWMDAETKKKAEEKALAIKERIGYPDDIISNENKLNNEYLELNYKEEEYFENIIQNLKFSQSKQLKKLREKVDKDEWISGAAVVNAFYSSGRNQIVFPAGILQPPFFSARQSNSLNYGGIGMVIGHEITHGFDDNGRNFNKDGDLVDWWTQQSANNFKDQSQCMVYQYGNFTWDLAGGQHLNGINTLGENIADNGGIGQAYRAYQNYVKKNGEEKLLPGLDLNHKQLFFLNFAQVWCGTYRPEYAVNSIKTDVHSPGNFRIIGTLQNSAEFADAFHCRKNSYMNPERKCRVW
# assay-protocol: Inhibition of enkephalinase activity in synaptic membranes prepared from rat striatum
pIC50: −log10 of the molar value.
Returns one of Y or N; Y when pIC50 is >= 8.

These recorded examples may help you get a feel for the data.
O=C(O)C(CSCc1ccccc1)NC(=O)[C@H](Cc1ccccc1)C[C@@H](Cc1ccccc1)C(=O)O (stereo not given in full) : Y
O=C(O)c1cc(NC(=O)[C@H](Cc2ccccc2)C[C@@H](Cc2ccccc2)C(=O)O)ccc1O : N

Please tell me: is the compound O=C(O)c1ccccc1NC(=O)C(Cc1ccccc1)CC(Cc1ccccc1)C(=O)O (stereo not given) at or over 8 in terms of pIC50? N

----------
# minimal effective dose per record follows
# System: Mus musculus
# assay-protocol: Hot-plate jump-latency activity in mouse 15 minutes after subcutaneous administration
# Assay type: functional
# applied-conditions: sc, 0.25 h, read-out: MED

In the examples that follow, each entry is paired with its recorded minimal effective dose.
CC1(C)O[C@H]2[C@H](COC(=O)CCNC(=O)[C@H](Cc3ccccc3)C[C@@H](Cc3ccccc3)C(=O)O)OC(=O)[C@H]2O1 : > 30 mg/kg
CCOC(=O)C(Cc1ccccc1)CC(Cc1ccccc1)C(=O)NCCC(=O)O (stereo unspecified) : > 100 mg/kg

The recorded minimal effective dose for O=C(O)CCNC(=O)[C@H](Cc1ccccc1)C[C@@H](Cc1ccccc1)C(=O)OC1OC(=O)c2ccccc21 (stereo partly specified) is 30 mg/kg

The recorded minimal effective dose for CC1(C)O[C@@H]2O[C@@H](COC(=O)CCNC(=O)[C@H](Cc3ccccc3)C[C@@H](Cc3ccccc3)C(=O)[O-])[C@H]3OC(C)(C)O[C@H]3[C@@H]2O1.[Na+] is > 30 mg/kg

The recorded minimal effective dose for O=C(O)CNC(=O)C(CS)Cc1ccccc1 (stereo unspecified) is 100 mg/kg

The recorded minimal effective dose for O=C(O)CCNC(=O)[C@H](Cc1ccccc1)C[C@@H](Cc1ccccc1)C(=O)O is > 30 mg/kg
